# protocol: Measurement of LogP values by HPLC on reversed phase columns (EEC directive 79/831 Annex V.A8)
# Assay type: physicochemical
# details: reversed phase HPLC column, method [a]: LC-UV, acidic range, 0.1% formic acid in water and acetonitrile as eluent
property.name: chromatographic logP

Solved entries (count: 3):
molecule: Cc1ccc(Oc2ccc(C(O)Cn3cncn3)c(Cl)n2)cc1Cl (stereo not drawn)
reported.result: 2.73
//
molecule: CC(O)(Cn1cncn1)c1cnc(Oc2ccccc2)cc1Cl (stereo not drawn)
reported.result: 2.1
//
molecule: OC(Cn1cncn1)c1ccc(Oc2ccc(Cl)cc2)nc1Cl (stereo not drawn)
reported.result: 2.42

(a) CC(O)(Cn1cncn1)c1ccc(Oc2ccc(Cl)cc2)nc1C(F)(F)F (stereo not drawn)
(b) O=C(c1ccc(Oc2ccc(Cl)cc2)nc1C(F)(F)F)C1CC1
Field: entry with larger chromatographic logP (options a / b ). Indicate your choice by writing its label.
b
(b: 4.17, a: 2.88)

(a) OC(Cn1cncn1)c1cnc(Oc2ccc(Cl)cc2)cc1C(F)(F)F (stereo not drawn)
(b) CC(=O)c1cnc(Oc2ccc(Cl)cc2)cc1C(F)(F)F
Field: entry with larger chromatographic logP (options a / b ). Indicate your choice by writing its label.
b

(P) OC(Cn1cncn1)c1ccc(Oc2ccc(Cl)cc2)nc1C(F)(F)F (stereo not drawn)
(Q) FC(F)(F)c1nc(Oc2ccc(Cl)cc2)ccc1C1(C2CC2)CO1 (stereo not drawn)
Field: entry with larger chromatographic logP (options P / Q ). Indicate your choice by writing its label.
Q

---

# System: Venturia inaequalis
# protocol: Example H: in vivo preventive test on Venturia test (apples)
# details: 240 h, 100 ppm of active ingredient, preventive spray, evaluated 10 days after inoculation, read-out: efficacy
property.name: pest or weed control at 100 ppm

Solved entries (count: 5):
compound: C[C@@](O)(Cn1cncn1)c1cnc(Oc2ccc(Cl)cc2)cc1C(F)(F)F
property.name: pest or weed control at 100 ppm
reported.result: 90 to 100%
//
compound: CC(O)(Cn1cncn1)c1cnc(Oc2ccccc2)cc1Cl (stereo not drawn)
property.name: pest or weed control at 100 ppm
reported.result: 90 to 100%
//
compound: Cc1ccc(Oc2ccc(C(C)(O)Cn3cncn3)c(Cl)n2)cc1Cl (stereo not drawn)
property.name: pest or weed control at 100 ppm
reported.result: 90 to 100%
//
compound: OC(Cn1cncn1)c1cnc(Oc2ccc(C(F)(F)F)cc2)cc1C(F)(F)F (stereo not drawn)
property.name: pest or weed control at 100 ppm
reported.result: 90 to 100%
//
compound: CC(O)(Cn1cncn1)c1ccc(Oc2ccc(S(F)(F)(F)(F)F)cc2)nc1Cl (stereo not drawn)
property.name: pest or weed control at 100 ppm
reported.result: 90 to 100%

Quick check: pest or weed control at 100 ppm of OC(Cn1cncn1)c1ccc(Oc2ccc(Cl)cc2)nc1C(F)(F)F (stereo not drawn) ?
90 to 100%

Record: OC(Cn1cncn1)c1cnc(Oc2ccc(S(F)(F)(F)(F)F)cc2)cc1C(F)(F)F (stereo not drawn)
90 to 100%

Record: Cc1ccc(Oc2ccc(C(O)Cn3cncn3)c(Cl)n2)cc1Cl (stereo not drawn)
90 to 100%

Record: CC(O)(Cn1cncn1)c1ccc(Oc2ccc(Cl)cc2)nc1C(F)(F)F (stereo not drawn)
90 to 100%

---

# protocol: Measurement of LogP values by HPLC on reversed phase columns (EEC directive 79/831 Annex V.A8)
# Format: physicochemical
Marks after values point to notes of the source that are not given here.
property.name: LogP

molecule: C=CC(O)(Cn1cncn1)c1cnc(Oc2ccc(C(F)(F)F)cc2)cc1C(F)(F)F (centres unmarked)
LogP: 3.33^[a]
//
molecule: OC(Cn1cncn1)c1ccc(Oc2ccc(OC(F)(F)F)cc2)nc1C(F)(F)F (centres unmarked)
LogP: 2.89^[a]
//
molecule: O=C(Cn1cncn1)c1ccc(Oc2ccc(Cl)cc2F)nc1C(F)(F)F
LogP: 2.74^[a]
//
molecule: O=C(c1ccc(Oc2ccc(C(F)(F)F)cc2)nc1C(F)(F)F)C1CC1
LogP: 4.37^[a]
//
molecule: O=C(Cn1cncn1)c1ccc(Oc2ccc(OC(F)(F)F)c(Cl)c2)nc1Cl
LogP: 3.33^[a]

Quick check: LogP of CC(O)(Cn1cncn1)c1ccc(Oc2ccc(Br)cc2)nc1C(F)(F)F (single isomer, unassigned) [I.101] ?
2.94^[a]

Record: CC(O)(Cn1cncn1)c1ccc(Oc2ccc(Cl)cc2F)nc1C(F)(F)F (centres unmarked) [I.89]
3.15^[a]

---

Entries and their LogP
# protocol: Measurement of LogP values by HPLC on reversed phase columns (EEC directive 79/831 Annex V.A8)
# Assay type: physicochemical
Marks after values point to notes of the source that are not given here.

compound: O=C(CCl)c1cnc(Oc2ccc(OC(F)(F)F)cc2)cc1C(F)(F)F
LogP: 4.37^[a]

Quick check: LogP of `O=C(c1ccc(Oc2ccc(Br)cc2)nc1C(F)(F)F)C1CC1` ?
4.49^[a]

Record: `O=C(CCl)c1ccc(Oc2ccc(OC(F)(F)F)cc2)nc1Cl`
4.09^[a]

Record: OC(Cn1cncn1)(c1ccc(Oc2ccc(C(F)F)cc2)nc1C(F)(F)F)C1CC1 (stereo not drawn)
3.13^[a]

Record: `O=C(CCl)c1ccc(Oc2ccc(C(F)F)cc2)nc1Cl`
3.42^[a]

Record: `O=C(Cn1cncn1)c1ccc(Oc2ccc(Cl)cc2)nc1OC(F)(F)F`
3.23^[a]

Record: OC(Cn1cncn1)c1cnc(Oc2ccc(Br)cc2)cc1C(F)F (stereo not drawn)
2.59^[a]

Record: OC(Cn1cncn1)(c1ccc(Oc2ccc(C(F)(F)F)cc2)nc1C(F)(F)F)C1CC1 (stereo not drawn)
3.57^[a]

Record: CC(O)(Cn1cncn1)c1cnc(Oc2ccc(OC(F)(F)F)cc2)cc1C(F)(F)F (stereo not drawn)
3.23^[a]

---

Entries and their pest or weed control at 100 ppm
# Test system: Venturia inaequalis
# protocol: Example H: in vivo preventive test on Venturia test (apples)
# details: 240 h, 100 ppm of active ingredient, preventive spray, evaluated 10 days after inoculation, read-out: efficacy

compound: O=C(Cn1cncn1)c1ccc(Oc2ccc(Cl)cc2)nc1C(F)(F)F [VII.01]
test.target: Venturia inaequalis
pest or weed control at 100 ppm: 90 to 100%
--
compound: OC(Cn1cncn1)(c1ccc(Oc2ccc(Cl)cc2)nc1C(F)(F)F)C1CC1 (centres unmarked) [I.91]
test.target: Venturia inaequalis
pest or weed control at 100 ppm: 90 to 100%
--
compound: CC(O)(Cn1cncn1)c1cnc(Oc2ccc(Cl)cc2)cc1C(F)(F)F (centres unmarked) [I.02]
test.target: Venturia inaequalis
pest or weed control at 100 ppm: 90 to 100%
--
compound: CC(O)(Cn1cncn1)c1ccc(Oc2ccc(C(F)F)cc2)nc1Cl (centres unmarked) [I.39]
test.target: Venturia inaequalis
pest or weed control at 100 ppm: 80 to 89%

// fetch Venturia inaequalis pest or weed control at 100 ppm for OC(Cn1cncn1)c1ccc(Oc2ccc(Cl)cc2)nc1Cl (centres unmarked) [I.14]
90 to 100%

---

# protocol: Measurement of LogP values by HPLC on reversed phase columns (EEC directive 79/831 Annex V.A8)
# Type: physicochemical
Marks after values point to notes of the source that are not given here.
property.name: LogP

Solved entries (count: 2):
compound: CC(=O)c1ccc(Oc2ccc(Cl)cc2)nc1OC(F)(F)F
reported.result: 4.37^[a]

compound: CC1(c2ccc(Oc3ccc(Cl)cc3)nc2C(F)(F)F)CO1 (centres unmarked)
reported.result: 4.44^[a]

Quick check: LogP of `O=C(CCl)c1cnc(Oc2ccc(C(F)(F)F)cc2)cc1C(F)(F)F` ?
4.21^[a]

Record: OC(Cn1cncn1)c1ccc(Oc2ccc(C(F)(F)F)cc2)nc1C(F)(F)F (centres unmarked) [I.61]
2.84^[a]

Record: CC(O)(Cn1cncn1)c1cnc(Oc2ccc(C(F)(F)F)cc2)cc1C(F)(F)F (centres unmarked)
3.11^[a]

---

# protocol: Measurement of LogP values by HPLC on reversed phase columns (EEC directive 79/831 Annex V.A8)
# Type: physicochemical
# Experimental: [table] If more than one Log P value is available within the same method, all the values are given and separated by “+”. Calibration was done with straight-chain alkan2-ones (with 3 to 16 carbon atoms) with known Log P values (measurement of Log P values using retention times with linear interpolation between successive alkanones). Lambda-max-values were determined using UV-spectra from 200 nm to 400 nm and the peak values of the chromatographic signals.
Marks after values point to notes of the source that are not given here.
Entries and their LogP

Solved entries (count: 3):
molecule: OC(Cn1cncn1)c1ccc(Oc2ccc(S(F)(F)(F)(F)F)cc2)nc1Cl (racemic) [I.34]
LogP: 2.90^[a]
//
molecule: O=C(Cn1cncn1)c1ccc(Oc2ccc(S(F)(F)(F)(F)F)cc2)nc1C(F)(F)F [VII.31]
LogP: 3.23^[a]
//
molecule: O=C(Cn1cncn1)c1ccc(Oc2ccc(F)cc2)nc1Cl [VII.12]
LogP: 2.30^[a]

Quick check: LogP of O=C(CCl)c1cnc(Oc2ccc(Cl)cc2)cc1Cl [VI.06] ?
3.77^[a]

Record: OC(Cn1cncn1)c1cnc(Oc2ccc(Cl)cc2)cc1C(F)F (stereo not drawn) [I.94]
2.13^[a]

Record: O=C(CCl)c1cnc(Oc2ccccc2)cc1Cl [VI.05]
3.28^[a]

Record: CC(O)(Cn1cncn1)c1ccc(Oc2ccc(Cl)cc2)nc1Cl (single isomer, unassigned) [I.51]
2.62^[a]

Record: CCCCC(O)(Cn1cncn1)c1ccc(Oc2ccc(Cl)cc2)nc1C(F)(F)F (stereo not drawn) [I.98]
3.87^[a]
